tested on: RAW264.7; experiment: Cytotoxicity against LPS-activated mouse RAW264.7 cells assessed as reduction in cell viability at 10 uM measured at 24 to 48 hrs by MTS assay relative to control; format: toxicity, cell-based; settings: raw264.7, 10 µM, time 24-48 hrs
For each of the compounds below, state its Activity.

Answered examples (4):
compound	Activity
Nc1ccc(F)c2c1C(=O)N(C1CCC(=O)NC1=O)C2=O (stereo unspecified)	100.9%
CC(C)Nc1ccc(F)c2c1C(=O)N(C1CCC(=O)NC1=O)C2=O (stereo unspecified)	99.9%
Nc1c(F)ccc2c1C(=O)N(C1CCC(=O)NC1=O)C2=O (stereo unspecified)	90%
O=C1CCC(N2C(=O)c3c(F)ccc([N+](=O)[O-])c3C2=O)C(=O)N1 (stereo unspecified)	104.9%

Dear reader, for each entry below, please note its Activity.
1. Nc1cccc2c1C(=O)N(C1CCC(=O)NC1=O)C2=O (stereo unspecified) [POMALIDOMIDE]
2. Nc1cccc2c1C(=S)N(C1CCC(=S)NC1=O)C2=O (stereo unspecified)

1: 95%; 2: 92%

* * *

test system: RAW264.7; assay: Cytotoxicity against LPS-activated mouse RAW264.7 cells assessed as reduction in cell viability at 10 uM measured at 24 to 48 hrs by MTS assay relative to control; assay type: toxicity, cell-based; details: raw264.7, 10 µM, time 24-48 hrs
Labelling: Activity reported below 90% becomes Criterion met; at or above becomes Criterion not met.

Example cases with answers are listed next.
compound	cat
Nc1ccc(F)c2c1C(=O)N(C1CCC(=S)NC1=O)C2=O (stereo unspecified)	Criterion not met
Nc1ccc(F)c2c1C(=S)N(C1CCC(=S)NC1=O)C2=O (stereo unspecified)	Criterion not met
CC(C)Nc1ccc(F)c2c1C(=O)N(C1CCC(=S)NC1=O)C2=O (stereo unspecified)	Criterion not met

Decide: Activity of O=C1NC(=S)CCC1N1C(=O)c2c(F)ccc([N+](=O)[O-])c2C1=O (stereo unspecified) strictly below 90%?
Criterion met

Please let me know if CC(C)Nc1ccc(F)c2c1C(=S)N(C1CCC(=S)NC1=O)C2=O (stereo unspecified) shows Activity below 90%.
Criterion met

* * *

test: Metabolic stability in human liver microsomes assessed as compound remaining at 10 uM using pH 7.4 phosphate buffer incubated for 30 mins in the presence of NADPH regenerating system by LC/MS analysis (reference value: 100%); format: ADME, Microsome; conditions: read-out: Stability
So I've got a bunch of molecules here, and I need their remaining at 0.5 h, 10 µM values.

molecule	remaining at 0.5 h, 10 µM
Nc1ccc(F)c2c1C(=S)N(C1CCC(=S)NC1=O)C2=O (configuration not stated)	64%

Consider the record given below.
Per the record, Nc1cccc2c1C(=S)N(C1CCC(=S)NC1=O)C2=O (configuration not stated) has remaining at 0.5 h, 10 µM of 68%
